assay: yeast display, Sf9 membrane polyspecificity reagent, FACS + sequencing; frameworks hold sequencing errors

[
  {
    "querySequence": "QVQLVESGVGLVQAGGSLRLSCAASGRTIPIYAMGWYRQAPGKERELVASITRSGGSTYYADSVKGRFTISRDNAKYTVYLQMNSLKPEDTAVYYCAAAANSYSVYSGKFYYWGQGTQVTVSS",
    "polyreactivity (PSR sort gate)": "high polyreactivity"
  },
  {
    "querySequence": "QVQLVESGGGLVQAGGSLRLSCAASGSIIGYYAMGWYRQAPGKDRELVAAISWSDGSTYYAVSVKGRFTISRDNAKNTVFLQMNSLKPEVTAVYYCAARFTPYITSDDGHYDYWGQGTQVTVSA",
    "polyreactivity (PSR sort gate)": "low polyreactivity"
  },
  {
    "querySequence": "QVQLVESGGGLVQAGGSLRLSCAASPLTFRYYDMGWYRQAPGKERELVAAISRTGRTNYADSVKGRFTISRDNAKNTVYVQMNSLKPEDTAVYYCAATGIYAKALLWYDYWGQGTQVTVSS",
    "polyreactivity (PSR sort gate)": "high polyreactivity"
  },
  {
    "querySequence": "QVQLVESGGGLVQAGGSLRLTCAASGSIFDYYAMGWYRQAPGKEWELVAAISNGGTTNYADSVKGRFTLSRDNAKNTVYLQMNRLKPEDTAVYYCNADSALYDKAVIYSEYDYWGQGTQVTVSS",
    "polyreactivity (PSR sort gate)": "low polyreactivity"
  },
  {
    "querySequence": "QVQLVESGGGLVQAGGSLRLSCAASGFTFSQYVMGWSRQAPGKERELVASITGKGGSTRYADSVKGRFTISRDNAKNTVYLQMNSLKQEDTAVYYCAARYVYFRWGSFDYWGQGTQVTVSS",
    "polyreactivity (PSR sort gate)": "high polyreactivity"
  },
  {
    "querySequence": "QVQLVESGGGLVQAGGSLRLSCAASGFIFAQNAMGWYRQAPGKEREFVAAISSRGSRTYYADSVKGRFTISRDNAKNTVYLQMNSLKPEDTAVYYCAASRRTRSMNYWGQGTQVTVSS",
    "polyreactivity (PSR sort gate)": "high polyreactivity"
  },
  {
    "querySequence": "QVQLVESGGGLVQAGGSLRLSCAASVFLPYTMGWYRQAPGKERELVAAITRGGSTYYADSVKGRFTISRDNAKNTVYLQMNSLKPEDTAVYYCAKRSTFAWRGYDYWGQGTEVTVSS",
    "polyreactivity (PSR sort gate)": "high polyreactivity"
  },
  {
    "querySequence": "QVQLLESGGGLVQAGGSLRLSCMASGSILGDRMSWYRQAPGKEHELVATIYDGGITCYADSMKGRFTISRDNAKNTVYLQMNSLRPEDTAVYYCGASFEGYRYHVYCGQGTQVTVSS",
    "polyreactivity (PSR sort gate)": "low polyreactivity"
  },
  {
    "querySequence": "QVQLVESGGGLVQAGGSLRLSCAASGFSIAYYAMGWYRQEPGKERELVAAISRRGGSTYYADSVKGRFTISRDNAKNTVYLQMNSLKPEDTAVYYCAKAHYLSDYNYWGQGTQVTVSS",
    "polyreactivity (PSR sort gate)": "high polyreactivity"
  },
  {
    "querySequence": "QVQLVESGGGLVQAGGSLRLSCAASGRTLARNAMGWYRQAPGKERELVAGITSGGSTDYADSVKGRFTISRDNAKNTVYLQMNSLKPEDTAVYYCNRDAGPGGDYWGQGTQVTVSS",
    "polyreactivity (PSR sort gate)": "low polyreactivity"
  },
  {
    "querySequence": "QVQLVESGGGLVQAGGSLRLSCAASGSIFAPNAMGWYRQAPGKERELVARISRTGGSTNYADSVKGRFTISRDNAKNTVYLQMNSLKPEDTAVYYCNTQYSYSSAPPFWYTQMYYWGQGTQVTVSS",
    "polyreactivity (PSR sort gate)": "high polyreactivity"
  }
]

* * *

assay: yeast display, Sf9 membrane polyspecificity reagent, FACS + sequencing; frameworks hold sequencing errors

[
  {
    "querySequence": "QVQLVESGGGLVQAGGSLRLSCAASGFIFYTYAMGWYRQAPGKERELVAAISWRGGRTYYADSVKGRFTISRDNAKNTVYLQMNSLKPEDTAVYYCNAVTRSGEYDYWGQGTQVTVSS",
    "polyreactivity (PSR sort gate)": "high polyreactivity"
  },
  {
    "querySequence": "QVQLVESGGGLVQAGGSLRLSCAASGRIFYGYAMGWYRQAPGKERELVAAITSRGTSTYYADSVKGRFTISRDTAKNTVYLQMNSLKPEDTAVYYCNAAYGRSFYSKVFSYNYWGQGTQVTVSS",
    "polyreactivity (PSR sort gate)": "high polyreactivity"
  },
  {
    "querySequence": "QVQLQESGGGLVQAGGSLRLSCEASGTIFKYYTMGWYRQAPGKEREFVAGINVGSTTNYADIVKGRFTISRDNAKNTVYLQMNSLKPEDTAVYYCAAYFIFLYYHDYWGLGTQVTVSS",
    "polyreactivity (PSR sort gate)": "low polyreactivity"
  },
  {
    "querySequence": "QVQLVESGGGLVQAGGSLRLSCAASGFIFASYAMGWYRQAPGKERELVAAISYRGGTTYYADSVKGRFTISRDNAKNTVYLQMNSLKPEDTALYYCAADSPENRYNYWGQGTQVTVSS",
    "polyreactivity (PSR sort gate)": "high polyreactivity"
  },
  {
    "querySequence": "QVQLVESGGGLVQAGGSLRLSCAASGFTFVRYAMGWYRKAPGKERELVAAISGSGDRTYYADSVKGRFTISRDNAKNTVYLQMNSLKPEDTAVYYCAKKSLGARHTGRYNYWGQGTQVTVSS",
    "polyreactivity (PSR sort gate)": "high polyreactivity"
  },
  {
    "querySequence": "QVQLVESGGGLVQAGGSLRLSCAASGGIFFIYAMGWYRQAPGKERELVAAISWGGGSTYYADSVKGRFTISRDNAKNTFYLQMNSLKPEDTAVYYCAARLYGRGYYYWGQGTQVTVSS",
    "polyreactivity (PSR sort gate)": "high polyreactivity"
  },
  {
    "querySequence": "QVQLVESGGGLVQAGGSLRLSCAASGSTSRYNVMGWYRQAPGKERELVAAISSRGVSTYYADSVKGRFTISRDNAKKTVYLQMNSLKPEDTAVYYCAARYGGPSHYGYWGQGTQVTVSS",
    "polyreactivity (PSR sort gate)": "high polyreactivity"
  },
  {
    "querySequence": "QVQLVESGGGLVQAGGSLRLSCAASGSIFYPNAMGWYRQAPGKEREFVAAITWNGDSTYYADSVKGRFTISRDNAKNTVYLQMNSLKPEDTAVYYCNTDGQGIYSYNKDLSWISGYDYWGQGTQVTVSS",
    "polyreactivity (PSR sort gate)": "low polyreactivity"
  },
  {
    "querySequence": "QDQLVESGGGLVQAGGSLRLSCAASGRTFWVYAKGWYRQAPGKERELVAGISWDDGSTYYADSVKGRFTISRDNAKNTVYLQMNSLKPEDTAVYYCAADAYFIFYISYEYWGQGTQVTVSS",
    "polyreactivity (PSR sort gate)": "low polyreactivity"
  },
  {
    "querySequence": "QVQLVESGGGLVQAGGSLRLICAASGSIFGYYAMGWYRQAPGKERELVAAISYSGSRTYYADSVKGRFTISRDNAKNTVYLQMNSLKPEDTAVYYCAARGSRLYSSWRGDYWGQGTQVTVSS",
    "polyreactivity (PSR sort gate)": "high polyreactivity"
  },
  {
    "querySequence": "QVQLVESGGGLVQAGGSLRLSCAASGFIFPSNVMGWYRQATGKERELVAAISTRGGRTYYADSVKGRFTISRDNAKNTVYLQMNSLKPEDTAVYYCAASISRQGGVGYWGQGTQVTVSS",
    "polyreactivity (PSR sort gate)": "high polyreactivity"
  }
]

* * *

assay: yeast display, Sf9 membrane polyspecificity reagent, FACS + sequencing; frameworks hold sequencing errors

[
  {
    "querySequence": "QDQLVDSGGGLVQAGGSLRLSSSASGLIFYKYAMGWYRQAPGKERELVAAISSSGGSTYYADSVKGRFTISRDTAKITVYLQMNSLKPDDTAVYYCAARTNRRGYNYWGQGTQVTVSS",
    "polyreactivity (PSR sort gate)": "high polyreactivity"
  },
  {
    "querySequence": "QEQLQESVVCQVQAGRSLHLSCAASGNIIRYSYMGWYRQAPGNERELVAAITYGTSTNYADSVKGRFTISRDHAKNTVYLQMTSLKPEDTAVYYCAVDVNYGDPLDNWCQGTQVTVSS",
    "polyreactivity (PSR sort gate)": "high polyreactivity"
  }
]

* * *

test: yeast display, Sf9 membrane polyspecificity reagent, FACS + sequencing; frameworks hold sequencing errors
measuredParameter: polyreactivity (PSR sort gate)

[
  {
    "querySequence": "QVQLVESGGGLVQAGGSLRLSCAASGFIFHLYGMAWYRQAPGKERELVAAISSGGRAYYADSVKGRFTISRDNAKNTVYLQMNSLKPEDTAVYDCAVYVAYLYSYYYWGQGTQVTVSS",
    "measuredParameter": "polyreactivity (PSR sort gate)",
    "assayValue": "low polyreactivity"
  },
  {
    "querySequence": "QVQLVESGGGLVQAGGSLRLSCAASGSTFPWYAMGWYRQAPGKERELVAAISFSGGSTYYADSVKGRFTISRDNAKNTVYFQMNSLKPEDTAVYYCAAVWGYVIWVDTAVYREYDYWGQGTQVTVSS",
    "measuredParameter": "polyreactivity (PSR sort gate)",
    "assayValue": "high polyreactivity"
  },
  {
    "querySequence": "QVHLVESGGGLVQAGGSLRLSFAASGSTFEDNAMGWYRQAPGKERELVAGISTNGGSTSYADSVKGRFTISRDNAKNTVYLQMNSLKPEVTAVYYCAKGLYVQFDYWGQGTQVTVSS",
    "measuredParameter": "polyreactivity (PSR sort gate)",
    "assayValue": "low polyreactivity"
  },
  {
    "querySequence": "QVQLVESGGGLVQAGGSLRLSCAASGSTFYYYAMGWYRQAPGKERELVAAISWSGGSTYYADSVKGRFTISRDNAKNTVYLQMNSLKPEDTAVYYCNKYVRFRGGAYVTGYDYWGQGTQVTVSS",
    "measuredParameter": "polyreactivity (PSR sort gate)",
    "assayValue": "high polyreactivity"
  },
  {
    "querySequence": "QVQLVESGGGLVQAGGSLRLSCAASGSIITPYAMGWYRQAPGKERELVAAISGRGGSTYYADSVKGRFTISRDNAKNTVYLQMNSLKPEDTAVFFCAAKRSGGQGQGYGYWGQGTQVTVSS",
    "measuredParameter": "polyreactivity (PSR sort gate)",
    "assayValue": "high polyreactivity"
  }
]
